Entry source: ChEMBL document CHEMBL4043278

Experiment: Metabolic stability in human liver microsomes assessed as parent compound remaining at 1 uM preincubated for 3 mins followed by NADP+ addition measured after 30 mins by LC-MS assay
Type: ADME, microsome
Conditions: read-out: Stability
experimental-endpoint: remaining at 0.5 h, 1 µM (%)

Worked examples follow.
smiles-input: COc1ccc(S(=O)(=O)N(CC(=O)O)c2ccc(N(CC(=O)O)S(=O)(=O)c3ccc(OC)cc3)c3ccccc23)cc1
quantitative-readout: 58.6
--
smiles-input: CNNC(=O)c1c(C)n(S(=O)(=O)c2ccc(OC)cc2)c2c1cc(NS(=O)(=O)c1ccc(OC)cc1)c1ccccc12
quantitative-readout: 90.8
--
smiles-input: COc1ccc(S(=O)(=O)Nc2cc3c(C(=O)NNc4ccccc4)c(C)n(S(=O)(=O)c4ccc(OC)cc4)c3c3ccccc23)cc1
quantitative-readout: 85.4
--
smiles-input: CCOc1ccc(S(=O)(=O)Nc2cc3c(C(=O)NO)c(C)n(S(=O)(=O)c4ccc(OCC)cc4)c3c3ccccc23)cc1
quantitative-readout: 81
--
smiles-input: COc1ccc(S(=O)(=O)Nc2cc3c(C(=O)NNc4ccc([N+](=O)[O-])cc4)c(C)n(S(=O)(=O)c4ccc(OC)cc4)c3c3ccccc23)cc1
quantitative-readout: 86.5

I = CCOc1ccc(S(=O)(=O)Nc2cc3c(C(=O)NN)c(C)n(S(=O)(=O)c4ccc(OCC)cc4)c3c3ccccc23)cc1
II = COc1ccc(NNC(=O)c2c(C)n(S(=O)(=O)c3ccc(OC)cc3)c3c2cc(NS(=O)(=O)c2ccc(OC)cc2)c2ccccc23)cc1
III = COc1ccc(S(=O)(=O)Nc2ccc(NS(=O)(=O)c3ccc(OC)cc3)c3ccccc23)cc1
-- ask Number of molecules to sort: 3. Sort criterion: remaining at 0.5 h, 1 µM, ascending. Form entry: ranked labels (order as requested).
-- reply III, I, II
